Molecular target: T1, human MAdCAM expressed on cells (human, UniProt Q13477 19-382)
T1 construct: whole, on cells; also called MADCAM1
T1 sequence (looked up): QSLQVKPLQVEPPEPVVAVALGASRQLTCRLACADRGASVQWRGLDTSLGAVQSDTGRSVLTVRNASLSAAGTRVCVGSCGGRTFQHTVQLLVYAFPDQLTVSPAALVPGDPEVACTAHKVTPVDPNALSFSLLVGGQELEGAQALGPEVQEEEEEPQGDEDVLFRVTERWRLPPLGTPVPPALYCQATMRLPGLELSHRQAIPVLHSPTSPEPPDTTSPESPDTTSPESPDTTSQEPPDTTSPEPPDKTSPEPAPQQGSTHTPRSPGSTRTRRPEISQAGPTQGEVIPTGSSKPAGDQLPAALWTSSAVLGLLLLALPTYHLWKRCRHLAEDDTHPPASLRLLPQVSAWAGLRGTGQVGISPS
Assay: cell binding

binder	binding result
MAdCAM antibody Clone ID 31 of Table 6 (scFv) (scFv) scFv: QVQLVQSGAEVKKPGASVKVSCKASGYTFTSYYMHWVRQAPGQGLEWMGIINPSGGSTSYAQKFQGRVTMTRDTSTSTVYMELSSLRSEDTAVYYCARDTGYSYGRYYYYGMDVWGQGTLVTVSSGGGGSGGGGSGGGGSGGGGSDIQMTQSPSSLSASVGDRVTITCRASQSIGRWLAWYQQKPGKAPKLLIYDASNLQSGVPSRFSGSGSGTDFTLTISSLQPEDFATYYCQQSYSIPITFGQGTKVEIK	binds
MAdCAM antibody Clone ID 50 of Table 6 (scFv) (scFv) scFv: QVQLVQSGAEVKKPGASVKVSCKASGYTFTSYDINWVRQAPGQGLEWMGWINPNSGTTGYAQKFQGRVTMTRDTSTSTVYMELSSLRSEDTAVYYCARSPYYYYGMDVWGQGTTVTVSSGGGGSGGGGSGGGGSGGGGSDIQMTQSPSSLSASVGDRVTITCRASHFISRWVAWYQQKPGKAPKLLIYAASTLQSGVPSRFSGSGSGTDFTLTISSLQPEDFATYYCQQSYSGISFGPGTKVDIK	binds
MAdCAM antibody Clone ID 61 of Table 6 (scFv) (scFv) scFv: EVQLLESGGGLVQPGGSLRLSCAASEFTFSNAWMSWVRQAPGKGLEWVASISSTSAYIDYADSVKGRFTISRDNSKNTLYLQMNSLRAEDTAVYYCAREVVGATTFDYWGQGTLVTVSSGGGGSGGGGSGGGGSGGGGSDIQMTQSPSSLSASVGDRVTITCRASQSISTWLAWYQQKPGKAPKLLIYAASSLQSGVPSRFSGSGSGTDFTLTISSLQPEDFATYYCQQANAFPPTFGQGTRLEIK	binds
